// provenance: ChEMBL document CHEMBL5058577

# Tested on: HEK-293T
# TEST_NAME: Multiplex assay against HEK293T
# Assay type: toxicity, cell-based
# ASSAY_SETUP: human, 12 h, 10 µM, compound concentration 10 uM, replicate 1
A collection of compounds and their measured Population Normal (%)
# number only, unit % dropped from output

Consider the worked cases shown below.
CC(/C=C1\SC(=S)N(CCCC(=O)Nc2ccc(C(=O)O)c(O)c2)C1=O)=C\c1ccccc1: 92
COC[C@@H](c1ccc(C(F)(F)F)cc1)N1CCN(C2(C)CCN(C(=O)c3c(C)ncnc3C)CC2)C[C@@H]1C.O=C(O)/C=C\C(=O)O [VICRIVIROC MALEATE]: 91
O=C(NCCN1CCC(n2c(=O)[nH]c3cc(Cl)ccc32)CC1)c1ccc(F)cc1 [HALOPEMIDE]: 85
CN(C)C(=O)Cn1cc(-c2ccc(-c3cncc4ccccc34)cc2)cn1: 93
Cl.N=C(N)NC(=O)Cc1c(Cl)cccc1Cl [GUANFACINE HYDROCHLORIDE]: 92

Form: compound = O=C(CCCc1ccccc1)Nc1nc2ccccc2c(=O)s1 ; Population Normal (%) = 90

Form: compound = Cc1cnc(-c2cc(N3CCN(C(=O)CCS(C)(=O)=O)CC3)ncc2Cl)c(C)c1 ; Population Normal (%) = 89

Form: compound = CN[C@@H](C)C(=O)N[C@H](C(=O)N1CCC[C@H]1C(=O)Nc1snnc1-c1ccccc1)C1CCCCC1 [GDC-0152] ; Population Normal (%) = 86

###

# System: U2OS
# TEST_NAME: Multiplex assay against U2OS
# Type: toxicity, cell-based
# ASSAY_SETUP: human, 12 h, 10 µM, compound concentration 10 uM, replicate 2
TEST_READOUT: Population Mitochondria Different-Phenotype (%)
# number only, unit % dropped from output

CC(C)(C)c1cc(NC(=O)Nc2ccc(-c3cn4c(n3)sc3cc(OCCN5CCOCC5)ccc34)cc2)no1 [QUIZARTINIB]: 33

Form: molecule = Cl.N=C(N)NC(=O)Cc1c(Cl)cccc1Cl [GUANFACINE HYDROCHLORIDE] ; Population Mitochondria Different-Phenotype (%) = 7

Form: molecule = COc1ccccc1N1CCN(C[C@@H](C(=O)NC(C)(C)C)c2ccccc2)CC1.Cl.Cl ; Population Mitochondria Different-Phenotype (%) = 56

Form: molecule = NCCc1cn(S(=O)(=O)c2c(Cl)nc3sccn23)c2ccccc12.O=C(O)C(=O)O ; Population Mitochondria Different-Phenotype (%) = 71

###

A collection of compounds and their measured Population Fragmented Nuclei (%)
# Tested on: Fibroblast
# TEST_NAME: Multiplex assay against human fibroblast
# Format: toxicity, cell-based
# ASSAY_SETUP: 24 h, 10 µM, compound concentration 10 uM, replicate 1
# number only, unit % dropped from output

Consider the worked cases shown below.
CCCCCC(O)/C=C/[C@H]1C(=O)CC(O)C1C/C=C\CCCC(=O)O (some centres undefined): 17
CN(C)C(=O)Cn1cc(-c2ccc(-c3cncc4ccccc34)cc2)cn1: 20
C[C@H](N)COC(=O)[C@@H](CCCCN)NC(=O)Cc1c(-c2ccc3ccccc3c2)[nH]c2c1ccc1ccccc12: 13
COc1cccc2c1c(NS(=O)(=O)c1ccc(Cl)s1)nn2Cc1cccc(CNC(=O)C(C)(C)O)c1: 11
Cc1c(CC(=O)O)c2cccnc2n1Cc1ccc(S(C)(=O)=O)cc1C(F)(F)F: 16
CC(/C=C1\SC(=S)N(CCCC(=O)Nc2ccc(C(=O)O)c(O)c2)C1=O)=C\c1ccccc1: 11
Cl.NCCc1ccc(O)c(O)c1 [DOPAMINE HYDROCHLORIDE]: 16
Cc1cnc(-c2cc(N3CCN(C(=O)CCS(C)(=O)=O)CC3)ncc2Cl)c(C)c1: 10

Here is another compound to look at.
Form: compound = CCCOc1ccc2[nH]cc(C3=CCNCC3)c2n1.Cl ; Population Fragmented Nuclei (%) = 23
